assay: VP16 transactivation inhibitors, counter-screen for SRC1 inhibitor project, cell-based, luminescence, high throughput (AID 588824); details: cell-based VP16 transactivation luciferase luminescence; at 3.6 µM; active compounds read high
Assign YES whenever inhibition does not fall below 30%; assign NO whenever it does.

Cc1c(O)ccc(/C(Cc2ccc3ccccc3n2)=N\N)c1O ... NO
C(=NN1CCCCCC1)c1ccc2ccccc2n1 ... YES
O=C(Nc1ccon1)c1nc[nH]c1C(=O)NCc1ccccc1 ... YES
Cc1sc2ncnc(N3CCN(C(=O)c4ccco4)CC3)c2c1C ... NO
Cc1nc(N)c(CC(Br)CBr)c(Cl)n1 (stereo unspecified) ... NO
Cc1cc(C(=O)COC(=O)c2cccc(NS(C)(=O)=O)c2)c(C)n1CC1CCCO1 (stereo unspecified) ... NO
COc1ccc(S(=O)(=O)N2CCOC23CCN(S(=O)(=O)c2ccc(Cl)cc2)CC3)cc1 ... NO
COc1ccc(CCNC(=O)c2nnn(-c3ccc4c(c3)OCCO4)c2N)cc1OC ... NO
O=C(Nc1ccc(N2CCN(C(=O)c3ccc(Cl)cc3)CC2)cc1)c1ccc2c(c1)OCCO2 ... YES
OCCCNc1ncnc2scc(-c3ccc(Cl)cc3)c12 ... YES
OCCCNc1nccc(-c2cc(Nc3cccc(Cl)c3)ncn2)n1 ... YES
CN1c2ccc(C=O)c3c(C=O)ccc(c23)N(C)C1(C)C ... NO
Clc1ccc(-c2csc3ncnc(NCCN4CCOCC4)c23)cc1 ... YES
CC(C)(C)C(=O)/C(=C/c1ccc(Cl)cc1)n1cncn1 ... YES
Cc1cc(C)nc(/N=C(\N)Nc2ccc(CC(=O)OC(C)C)cc2)n1 ... NO
CCC(=O)NC(c1ccc(Cl)cc1Cl)c1ccc2cccnc2c1O (stereo unspecified) ... YES
N#CC(c1ccc(Cl)cc1)c1ccc2c(C(F)(F)F)cc(C(F)(F)F)nc2n1 (stereo unspecified) ... YES
CCN(CC)S(=O)(=O)c1cccc(NC(=O)COC(=O)c2[nH]c(C)c(C(C)=O)c2C)c1 ... YES
CN(CC(=O)Nc1ccc(Cl)c(C(F)(F)F)c1)C(=O)C1CC(=O)N(c2ccc3c(c2)OCCO3)C1 (stereo unspecified) ... NO
C[n+]1c2n(c3ccccc31)N=C(c1ccccc1)CS2 ... YES
Cc1[nH]ccc2c1[nH]c1cc(=O)ccc12 ... YES
O=C(Nc1cccc(Br)c1)c1cc(S(=O)(=O)N2CCOCC2)cs1 ... NO
Fc1ccc2[nH]c3c(N4CCN(c5ccccc5)CC4)ncnc3c2c1 ... NO
Cc1nn(-c2nc3ccccc3[nH]2)c(=O)c2ccccc12 ... YES
CCN(CC)c1ccc(C(=C2C=CC(=[N+](CC)CC)C=C2)c2ccc(N(CC)CC)cc2)cc1 ... YES
COC(=O)c1ccc2nc(Nc3nc4c(F)cc(F)cc4s3)sc2c1 ... YES
NC(=O)C(C(=O)/C=C/c1ccc(Cl)cc1)=C1SCCS1 ... YES
CC(=NNC(=S)N1CCCC1)c1ccccn1 ... YES
Cc1sc2ncnc(N3CCC(C(=O)Nc4cc(S(C)(=O)=O)ccc4Cl)CC3)c2c1C ... NO
Cn1cc(C(=O)N/N=C/c2c(O)ccc3ccccc23)ccc1=O ... YES
CCN(C(=O)CN1C(=O)S/C(=C\c2cccc(Cl)c2)C1=O)C1CCS(=O)(=O)C1 (stereo unspecified) ... NO
COc1ccccc1C1NC(=O)NC(C)=C1C(=O)OC1CCCC(C)C1 (stereo unspecified) ... NO
O=C(CCCc1nc(-c2ccccc2Cl)no1)NC1CCCC1 ... NO
